MEASUREMENT_PROTOCOL: Dissolution profiles of flupirtine acid addition salts in ethanol (compacted substance)
Type: physicochemical
CONDITION_PARAMETERS: 25 min; 100 mg compacted, 1000 ml ethanol, 37° C., basket 50 UpM
EXPERIMENTAL_ENDPOINT: Amount of substance dissolved (mg)

CCOC(=O)Nc1ccc(NCc2ccc(F)cc2)nc1N [Flupirtine propionate] | 109.6
CCOC(=O)Nc1ccc(NCc2ccc(F)cc2)nc1N.O=C(O)/C=C\C(=O)O [Flupirtine maleate B, Flupirtine Maleate Form B, reference compound] | 21.3
CC(=O)O.CCOC(=O)Nc1ccc(NCc2ccc(F)cc2)nc1N [Flupirtine acetate] | 96.2
CCOC(=O)Nc1ccc(NCc2ccc(F)cc2)nc1N.O=C(O)/C=C\C(=O)O [Flupirtine maleate A, Flupirtine Maleate Form A, reference compound] | 11.7
